QUANTITY MEASURED: melting point (°C)
// units = °C; emit number, no label

In: melting point for Cc1ccc(CCCO)c(NCc2ccc3nc(NCCCN4CCOCC4)n(Cc4cc(Br)ccc4O)c3c2)c1 [Compound 201] ?
Out: 134

In: If you can, please state the reported melting point value of COc1ccc(C)nc1Cn1c(NCCCN2CCOCC2)nc2ccc(CNc3cc(C)ccc3CCCO)cc21 [Compound 219] .
Out: 132

In: Consider the compound shown here: Cc1ccc(CCO)c(NCc2ccc3nc(NCCCN4CCOCC4)n(Cc4ncccc4O)c3c2)c1 [Compound 192] What is its recorded melting point?
Out: 192

In: What value of melting point has been recorded for this entry: Cc1cc(C)cc(NCc2ccc3nc(NCCCN4CC(C)OC(C)C4)n(Cc4nc(C)ccc4O)c3c2)c1 (stereo not shown) [Compound 172]
Out: 192

In: Param item = Cc1cc(C)cc(NCc2ccc3nc(NCCCN4CCOCC4)n(Cc4nc(C)ccc4O)c3c2)c1 [Compound 23] ; retrieve measured melting point.
Out: 199

In: What does the record list as melting point for Cc1cc(C)cc(NCc2ccc3nc(NCC(O)CN4CCOCC4)n(Cc4nc(C)ccc4O)c3c2)c1 (stereo not shown) [Compound 171] ?
Out: 198

In: If you can, please state the reported melting point value of Cc1cc(C)cc(NC(=O)c2ccc3nc(NCCCN4CCOCC4)n(Cc4nc(C)ccc4O)c3c2)c1 [Compound 160] .
Out: 172

----------
tested on: Respiratory Syncytial Virus; test: microbe, parasite or virus in culture; assay type: cell-based; conditions: human respiratory syncytial virus, 168 h; RSV-infected HeLa cells, MTT readout seven days after infection; −log of EC50 in molar units
# log10 of EC50 values compiled below
A value of 2 here means EC50 of 100 in µM, since values are log10.

Solved entries (count: 2):
MOLECULE: Cc1ccc2c(c1)N(Cc1ccc3nc(NCCCN4CCOCC4)n(Cc4nc(C)ccc4O)c3c1)CC2
QUANTITY MEASURED: log10 of EC50
ENDPOINT VALUE: -1.30

MOLECULE: Cc1ccc(O)c(Cn2c(NC3CCNC(CCN4CCOCC4)C3)nc3ccc(CCc4ccccc4)cc32)n1 (stereo not shown)
QUANTITY MEASURED: log10 of EC50
ENDPOINT VALUE: -0.90

In: Give the measured log10 of EC50 of Cc1cc(C)c2c(c1)nc(NCCCN1CCOCC1)n2Cc1nc(C)ccc1O .
Out: 1.10

----------
test system: Respiratory Syncytial Virus; assay: microbe, parasite or virus in culture; assay type: cell-based; details: pEC50 (−log of EC50 when expressed in molar units), protection against RSV cytopathology
QUANTITY MEASURED: Activity

See these solved cases before continuing.
COMPOUND: COc1ccc(C)nc1Cn1c(NCCCN2CCOCC2)nc2ccc(CN(CCO)c3cc(C)cc(C)c3)cc21
ENDPOINT VALUE: 7.9
--
COMPOUND: COc1ccc(C)nc1Cn1c(NCCCN2CCOCC2)nc2ccc(CO)cc21
ENDPOINT VALUE: 4.9
--
COMPOUND: C#Cc1cccc(NCc2ccc3nc(NCCCN4CCOCC4)n(Cc4nc(C)c(C)nc4C)c3c2)c1
ENDPOINT VALUE: 7
--
COMPOUND: Cc1nc2c(nc1C)C(n1c(NCCCN3CCOCC3)nc3cc(CNc4ccccc4CO)ccc31)CCC2 (stereo not shown)
ENDPOINT VALUE: 7.1

In: Write down the reported Activity of Cc1ccc(CCCO)c(NCc2ccc3c(c2)nc(NCCCN2CCOCC2)n3Cc2cccc(C)n2)c1 , test system: Respiratory Syncytial Virus.
Out: 4.7

In: Param readout= Activity; system= Respiratory Syncytial Virus; entry= Cc1cc(C)cc(N(CCCC(N)=O)Cc2ccc3nc(NCCCN4CCOCC4)n(Cc4ccc(F)cc4)c3c2)c1 ; returns value.
Out: 6.5

In: Report Activity for Cc1cc(C)cc(N(CCO)Cc2ccc3nc(NCCCN4CCOCC4)n(Cc4cccc(C)n4)c3c2)c1 tested on Respiratory Syncytial Virus.
Out: 7.1

----------
tested on: Respiratory Syncytial Virus; experiment: microbe, parasite or virus in culture; format: cell-based; conditions: human respiratory syncytial virus; pEC50 (−log of EC50 when expressed in molar units), protection against RSV cytopathology
QUANTITY MEASURED: EC50 (nM)
Report the value in nM with no unit label.

The examples below pair each entry with its known result.
COMPOUND: Cc1ccc(CCO)c(NCc2ccc3nc(NCCCN4CCOCC4)n(Cc4ncccc4O)c3c2)c1 [Compound 192]
EC50 [nM]: 0.501

COMPOUND: Cc1ccc(CCCO)c(NCc2ccc3nc(NCCCN4CCOCC4)n(Cc4cccc(Br)n4)c3c2)c1 [Compound 267]
EC50 [nM]: 50.1

COMPOUND: Cc1cc(C)cc(N(CCO)Cc2ccc3nc(NCCCN4CCOCC4)n(Cc4nc(C)c(C)nc4C)c3c2)c1 [Compound 233]
EC50 [nM]: 5.01

COMPOUND: Cc1ccc(CCO)c(NCc2ccc3nc(NCCCN4CCOCC4)n(C4CCCc5nc(C)c(C)nc54)c3c2)c1 (stereo not shown) [Compound 193]
EC50 [nM]: 0.501

COMPOUND: Cc1cc(C)cc(N(CCCC(N)=O)Cc2ccc3nc(NCCCN4CCOCC4)n(Cc4cccc5c4ncn5C)c3c2)c1 [Compound 230]
EC50 [nM]: 3.98

COMPOUND: COc1ccc(C)nc1Cn1c(NCCCN2CCOCC2)nc2ccc(CNc3cc(C)ccc3CCCO)cc21 [Compound 219]
EC50 [nM]: 2.51

Please look at the following compound next.
In: Look up EC50: Cc1ccc(CCCO)c(NCc2ccc3nc(NCCCN4CCOCC4)n(Cc4cccc5cccnc45)c3c2)c1 [Compound 234]
Out: 5.01

----------
test system: Respiratory Syncytial Virus; assay: microbe, parasite or virus in culture; type: cell-based; conditions: pEC50 (−log of EC50 when expressed in molar units), protection against RSV cytopathology
Labelling: Activity reported below 7 becomes yes; at or above becomes no.

Examples from the recorded data:
SAMPLE SMILES: Cc1ccc(CCO)c(NCc2ccc3nc(NCCCN4CCOCC4)n(Cc4cccc5c4ncn5C)c3c2)c1
CAT: no

SAMPLE SMILES: Cc1cccc(NCc2ccc3nc(NCCCN4CCOCC4)n(Cc4cccc(C)n4)c3c2)c1
CAT: yes

In: Is the reported Activity for Cn1cnc2c(Cn3c(NCCCN4CCOCC4)nc4ccc(CNc5ccccc5CCCO)cc43)cccc21 strictly below 7?
Out: no

In: State whether 7 exceeds Activity recorded for COc1ccc(C)nc1Cn1c(NCCCN2CCOCC2)nc2cc(CNc3cc(C)ccc3CCCO)ccc21 .
Out: yes

In: Hello, is Activity of the following molecule strictly smaller than 7? Cc1ccc(CCCO)c(NCc2ccc3nc(NCCCN4CCOCC4)n(Cc4ccccc4O)c3c2)c1
Out: no

In: Criterion: Activity strictly below 7. Is it met by COc1ccc(C)nc1Cn1c(NCCCN2CCOCC2)nc2ccc(CNc3ccccc3CCCO)cc21 ?
Out: no

In: Is the reported Activity for OCCCc1ccc(C(F)(F)F)cc1NCc1ccc2nc(NCCCN3CCOCC3)n(Cc3cc(Br)ccc3O)c2c1 strictly below 7?
Out: no

In: Say whether its Activity is strictly beneath 7. Entry: COc1ccc(C)nc1Cn1c(NCCCN2CCOCC2)nc2ccc(CN(CCCC(N)=O)c3cc(C)cc(C)c3)cc21
Out: no

In: Decide: Activity of Cc1cccc(Cn2c(NCCCN3CCOCC3)nc3ccc(CNc4ccccc4CCN4CCOCC4)cc32)n1 strictly below 7?
Out: yes

----------
system: Respiratory Syncytial Virus; assay: microbe, parasite or virus in culture; type: cell-based; details: pEC50 (−log of EC50 when expressed in molar units), protection against RSV cytopathology
QUANTITY MEASURED: Activity
Hey, just send me the number, nothing else.

Below are worked cases with known answers.
SAMPLE SMILES: OCc1ccc2c(c1)nc(NCCCN1CCOCC1)n2Cc1cccc(Br)n1
ENDPOINT VALUE: 6.9

SAMPLE SMILES: Cc1nc(C)c(Cn2c(NCCCN3CCOCC3)nc3ccc(CNc4ccc(C(N)=O)cc4)cc32)nc1C
ENDPOINT VALUE: 7

SAMPLE SMILES: Cc1nc(C)c(Cn2c(NCCCN3CCOCC3)nc3ccc(CNc4ccccc4CCN4CCOCC4)cc32)nc1C
ENDPOINT VALUE: 6.9

Kindly consider the entry below.
In: Activity lookup needed for Cn1cnc2c(Cn3c(NCCCN4CCOCC4)nc4ccc(CNc5cc(C(F)(F)F)ccc5CCCO)cc43)cccc21 , thanks.
Out: 7.9

----------
test system: Respiratory Syncytial Virus; test: microbe, parasite or virus in culture; type: cell-based; settings: pEC50 (−log of EC50 when expressed in molar units), protection against RSV cytopathology
QUANTITY MEASURED: Activity
Reply: number alone, nothing else.

Consider the reported Activity for these compounds:
COMPOUND: COc1ccc(C)nc1Cn1c(NCCCN2CCOCC2)nc2ccc(CNc3cc(C)ccc3CCO)cc21 [Compound 220]
ENDPOINT VALUE: 8.6
--
COMPOUND: Cn1cnc2c(Cn3c(NCCCN4CCOCC4)nc4ccc(CNc5ccc(C(N)=O)cc5)cc43)cccc21 [Compound 296]
ENDPOINT VALUE: 6.9
--
COMPOUND: COc1ccc(C)nc1Cn1c(NCCCN2CCOCC2)nc2ccc(CNc3cccc(Br)c3)cc21 [Compound 297]
ENDPOINT VALUE: 6.9

Alright, here's another compound for you.
In: What value of Activity has been recorded for this entry: Cc1cc(C)cc(NCc2ccc3nc(NCCCN4CCOCC4)n(Cc4cccc(C)n4)c3c2)c1 [Compound 334]
Out: 5.5
